- protocol.notes: qHTS RealTime-Glo MT Cell Viability Assay in HepG2 cells - 32 hour (AID 1224877); further: nearly all actives have a fitted effect of over 55% in size
- experimental.setup: RealTime-Glo luminescence; series mostly up to 76.8 µM
Inconclusive results are not listed. Activity calls are given as the source filed them. The call rests on the fitted dose curve; in most records, active means well fitted cell-killing curve with a large enough effect in the repeat runs; inconclusive means weak or mixed curves; inactive means flat fitted curve, though single readings scatter.
Output constraint: value belongs to t for active, f for inactive

compound: Cc1cc(O)c(C(C)C)cc1Cl
qualitative.label: f

compound: COC(=O)CC(=O)C(C)(C)C
qualitative.label: f

compound: CCC(C(=O)OCCOCCN(CC)CC)c1ccccc1 (stereo unspecified)
qualitative.label: f

compound: NCC1CCCC(CN)C1 (stereo unspecified)
qualitative.label: f

compound: CC(C)OCC1CO1 (stereo unspecified)
qualitative.label: f

Req: Called result for COC(=O)c1cc(S(N)(=O)=O)ccc1OC
Resp: f

Req: Also, Cc1ccc(S(=O)(=O)NC2CCCCC2)cc1 please.
Resp: f

Req: Also, OC(CCCN1CCCCC1)(c1ccccc1)c1ccccc1 please.
Resp: f

Req: Also, CCOC(=O)c1ccccc1OC please.
Resp: f

Req: Also, CCOc1cc(N)c(Cl)cc1C(=O)NCC1CN(Cc2ccc(F)cc2)CCO1 (stereo unspecified) please.
Resp: f

Req: Also, CCCOC(=O)c1ccc(N)cc1 please.
Resp: f

Req: Also, CN1CCCN=C1/C=C/c1cccs1 please.
Resp: f

Req: Also, O=C(O)c1cccnc1C(=O)O please.
Resp: f

Req: Also, C[C@@H]1C[C@H]2[C@@H]3CCC4=CC(=O)C=C[C@]4(C)[C@@]3(F)[C@@H](O)C[C@]2(C)[C@@]1(O)C(=O)CO please.
Resp: f

Req: Also, Cc1nc2ccccc2s1 please.
Resp: f

Req: Also, CCCCC(=O)O[C@]1(C(=O)CO)[C@@H](C)C[C@H]2[C@@H]3CCC4=CC(=O)C=C[C@]4(C)[C@@]3(F)[C@@H](O)C[C@@]21C please.
Resp: f

Req: Also, O=C(CCC1CCN(Cc2ccccc2)CC1)c1ccc2c(c1)NCCCC2 please.
Resp: f

Req: Also, Cc1cc(C(=C2C=CC(=Nc3ccc(S(=O)(=O)O)cc3S(=O)(=O)O)C=C2)c2ccc(Nc3ccc(S(=O)(=O)O)cc3)cc2)ccc1N please.
Resp: f

Req: Also, CCN(CC)CCNC(=O)c1ccc(NC(C)=O)cc1 please.
Resp: f

====

- assayed.target: Androgen receptor (Homo sapiens) (UniProt P10275)
- Sequence (P10275 whole entry, looked up): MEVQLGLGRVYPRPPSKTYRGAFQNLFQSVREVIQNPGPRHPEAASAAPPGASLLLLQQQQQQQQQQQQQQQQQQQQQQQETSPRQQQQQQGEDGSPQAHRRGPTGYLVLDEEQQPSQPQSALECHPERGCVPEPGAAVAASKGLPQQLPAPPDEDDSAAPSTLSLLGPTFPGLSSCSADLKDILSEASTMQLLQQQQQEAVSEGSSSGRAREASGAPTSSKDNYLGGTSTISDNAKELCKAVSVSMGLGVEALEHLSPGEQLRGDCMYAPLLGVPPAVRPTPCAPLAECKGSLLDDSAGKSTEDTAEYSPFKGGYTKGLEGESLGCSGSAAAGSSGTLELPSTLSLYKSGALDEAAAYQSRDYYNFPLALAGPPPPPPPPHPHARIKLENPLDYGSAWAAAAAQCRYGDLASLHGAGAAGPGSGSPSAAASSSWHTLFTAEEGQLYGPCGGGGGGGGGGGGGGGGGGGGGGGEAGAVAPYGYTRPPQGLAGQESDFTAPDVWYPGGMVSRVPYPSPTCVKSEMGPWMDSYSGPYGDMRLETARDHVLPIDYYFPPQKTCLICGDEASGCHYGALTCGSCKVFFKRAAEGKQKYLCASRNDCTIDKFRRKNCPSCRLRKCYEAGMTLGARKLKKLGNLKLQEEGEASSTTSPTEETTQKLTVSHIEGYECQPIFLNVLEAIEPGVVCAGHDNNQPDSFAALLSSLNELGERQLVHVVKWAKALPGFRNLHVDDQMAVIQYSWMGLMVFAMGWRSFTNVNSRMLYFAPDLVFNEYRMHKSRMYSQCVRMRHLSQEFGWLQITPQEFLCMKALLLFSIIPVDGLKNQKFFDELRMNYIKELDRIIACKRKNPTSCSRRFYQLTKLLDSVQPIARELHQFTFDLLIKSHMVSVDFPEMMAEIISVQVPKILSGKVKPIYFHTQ
- protocol.notes: qHTS assay to identify small molecule antagonists of the androgen receptor (AR) signaling pathway using the MDA cell line in the presence of 0.5 nM R1881 (AID 1259243); further: nearly all actives have a fitted effect of over 50% in size
- experimental.setup: MDA-kb2 MMTV-luciferase, R1881 0.5 nM, 16 h; series mostly up to 42.5 µM
Results filed as inconclusive are left out. Active and inactive are the calls of the source. Calls follow the shape of the dose curve; as a rule, active = well fitted inhibition curve with a large enough effect in the repeat runs; inconclusive = weak or mixed curves; inactive = no such curve, though single readings can be large or run the other way.
Output constraint: value belongs to active, inactive

Consider the worked cases shown below.
molecule: Fc1ccccc1[C@@H](F)COC1CCC(Nc2ncnc3[nH]ncc23)CC1 (stereo partly specified)
qualitative.label: active
//
molecule: Cc1cc2nc3ccc(=[N+](C)C)cc-3sc2cc1N
qualitative.label: active
//
molecule: CC1(C)C2=CCCC(C)(C)[C@]23CC[C@H]1C3
qualitative.label: inactive
//
molecule: C=CCNc1nc(NCC=C)nc(N2CCN(C(c3ccc(F)cc3)c3ccc(F)cc3)CC2)n1
qualitative.label: active
//
molecule: CC(C)CCCC(=O)O
qualitative.label: inactive

Now let's try a different one.
Req: Called result for CNC(=O)N(c1ccccc1)c1ccccc1
Resp: inactive
